System: KM12 colon
Assay: NCI-60 one-dose screen, 48 h
Settings: 10 µM unless noted
Compounds without any hit were thinned out: in the full panel of roughly 83,000, 20% have a hit. Active and inactive are the calls of the source. Rule for the calls: active = growth percent below 10; inactive = the rest.
Assign a class; possible classes are class 1 (active), class 0 (inactive)

Molecule: c1ccc(CCNc2c3ccccc3nc3ccccc23)cc1
Discrete Label: class 0

Called result for COc1ccc2c(c1)c(/C(O)=C1\COC(=O)C1=O)cn2Cc1ccc(F)cc1 class 0

Called result for CC1=C(C(=O)Nc2nc(-c3ccc(Cl)cc3)cs2)[C@H](c2ccc(O)cc2)NC(=O)N1 class 0

Called result for Cc1[nH]c(C2CC(c3ccc(C(F)(F)F)c(F)c3)=NN2c2ccccc2)c(C)c1C(=O)NCC(F)(F)F (stereo not given) class 0

Called result for O=C(Cc1ccccc1)Nc1cccc(N=Cc2ccccc2O)c1 class 0

Called result for CN1C(=O)/C(=C/c2ccc(C(=O)Nc3ncc(Cc4cccc(Cl)c4)s3)cc2)SC1=S class 0

Called result for Cc1c2ccncc2c(C)c2c1c1cc(CO)ccc1n2C class 1

Called result for N#C/C(=C\c1ccc([N+](=O)[O-])cc1)n1nnc2cc(F)c(F)cc21 class 1

Called result for C/C=C(\C)C(=O)N[C@H]1C(O)C[C@]2(C)C3CC[C@@]4(C)C(CC[C@@H]4C(C)N(C)C)C3CCC2C1O (stereo not given in full) class 0

Called result for O=C(Nc1ccccc1[N+](=O)[O-])c1ccc(Cl)c(Cl)c1 class 0

----------
Tested on: SNB-19 CNS
Assay: NCI-60 one-dose screen, 48 h (100 = growth as untreated, 0 = no growth, -100 = all killed)
Settings: 10 µM unless noted
About 83,000 compounds went through this panel and 20% of them were active in at least one assay; those are over-represented in the sample as a whole.
Measured growth, listed per entry.
I only need the number, in %, no unit after it.

Smiles String: N=C(N)c1ccc(-c2ccc(-c3cc(Cl)cc(Cl)c3)s2)nc1
growth, %: 64.5

So, S=c1nc2oc(-c3ccccc3)c(-c3ccccc3)c2c(/N=C\c2ccco2)[nH]1 ? Its growth was 95.2

So, O=C(NCc1cccc(CNC(=O)Nc2nc3ccccc3[nH]2)c1)Nc1nc2ccccc2[nH]1 ? Its growth was 9.35

So, C=C(C)[C@@H]1CCC[C@]2(C(=O)O)CC[C@]3(C)[C@@H](CC[C@@H]4[C@@]5(C)C/C(=C/c6ccncc6)C(=O)C(C)(C)[C@@H]5CC[C@]43C)[C@@H]12 ? Its growth was 46.1

So, COc1ccc(-c2nc3c(N)c(CO)cnc3s2)cc1 ? Its growth was 97.2

So, O=C(CN1CCN(c2cc3c(cc2F)c(=O)c(C(=O)O)cn3C2CC2)CC1)N/N=C/c1ccco1 ? Its growth was 99.7

So, C/C(Cc1ccc(Cl)cc1)=C(\c1ccc(OCCCN(C)C)cc1)c1ccc(OC(=O)Cc2ccccc2)cc1 ? Its growth was 105

So, O=C(Nc1ccc(Cl)cc1)Oc1c(Cl)c(Cl)c(Cl)c(Cl)c1Cl ? Its growth was 98.1

So, CCCCCCCC/C=C\CCCCCCCCOc1ccc(CC(=O)NCC[N+]2(C)CCOCC2)cc1 ? Its growth was 38.7

So, O=C(CSc1nc(-c2ccccc2)cc(=O)[nH]1)Nc1nc(-c2ccccc2)cs1 ? Its growth was 105

So, NS(=O)(=O)c1ccc(C(=O)NN2C(=O)c3c(Br)c(Br)c(Br)c(Br)c3C2=O)cc1 ? Its growth was 101

----------
Tested on: SK-MEL-28 melanoma
Experiment: NCI-60 one-dose screen, 48 h (100 = growth as untreated, 0 = no growth, -100 = all killed)
Details: 10 µM unless noted
About 83,000 compounds went through this panel and 20% of them were active in at least one assay; those are over-represented in the sample as a whole.
growth strictly under 50% means yes (1); at 50% or over means no (0).

Completed entries (count: 5):
Smiles String: COc1ccc(C(=O)N2c3ccccc3Sc3ccccc32)c(C(F)(F)F)c1
Discrete Label: no (0)
--
Smiles String: CCCCC#Cc1c(I)n(C)c(=O)[nH]c1=O
Discrete Label: yes (1)
--
Smiles String: COc1ccc2nc(Cl)c(/C=C3\CC(c4ccccc4)=NN(c4ccccc4)C3=O)cc2c1
Discrete Label: no (0)
--
Smiles String: COc1ccc(/C=C/c2c(C(=O)/C=C/c3ccccc3)c(C)nc3ccccc23)cc1
Discrete Label: yes (1)
--
Smiles String: C=CC(=O)Nc1ccc(Oc2nccc(Nc3nnc(-c4ccc(C)cc4)s3)n2)cc1
Discrete Label: no (0)

--- query ---
Strictly below 50%: is that where growth of O=C(/C=C(O)/C=C/c1cccc2[nH]ccc12)/C=C/c1cccc2[nH]ccc12 sits? no (0)

----------
Tested on: ACHN renal
Assay: NCI-60 one-dose screen, 48 h (100 = growth as untreated, 0 = no growth, -100 = all killed)
Settings: 10 µM unless noted
Compounds without any hit were thinned out: in the full panel of roughly 83,000, 20% have a hit.
Recorded Endpoint: growth (%)
I only need the number, in %, no unit after it.

Previously resolved entries follow.
Compound: COc1ccc(/C=C/C(=O)c2ccc(NC(=O)CSc3nc4c([nH]3)c(=O)n(C)c(=O)n4C)cc2)cc1OC
Unit Abbreviation: %
Val: 94.4
--
Compound: O=S(=O)(Oc1ccc(Br)cc1)c1ccc(Cl)cc1
Unit Abbreviation: %
Val: 117

So, CCO/C=N/C1=C(C#N)C(c2ccc(F)cc2)c2sc3c(F)cccc3c2O1 (stereo not given) ? Its growth was 54

So, O=C(NC1CC(F)C1)c1cc2cccnc2n1-c1ccc(Cl)c(Cl)c1 (stereo not given) ? Its growth was 95.5

So, CCCC(CC)(C(=O)Nc1ccc2nc(C)cc(N)c2c1)C(=O)Nc1ccc2nc(C)cc(N)c2c1 ? Its growth was 105

So, CNCc1cccc2c1OCCOCCOCCNS(=O)(=O)c1ccc(cc1)-c1cnc(N)c(n1)C(=O)N2 ? Its growth was 54.7

----------
Tested on: A498 renal
Assay: NCI-60 one-dose screen, 48 h
Conditions: 10 µM unless noted
About 83,000 compounds went through this panel and 20% of them were active in at least one assay; those are over-represented in the sample as a whole. Active and inactive are the calls of the source. Rule for the calls: active = growth percent below 10; inactive = the rest.
Assign a class; possible classes are t = active, f = inactive

Called result for CC(C)(C)n1cc(-c2ccnc(NCCNS(=O)(=O)c3ccc(O)cc3)c2)c(-c2cccc(O)c2)n1 f

----------
Test system: CCRF-CEM leukemia
Test: NCI-60 one-dose screen, 48 h
Settings: 10 µM unless noted
Compounds without any hit were thinned out: in the full panel of roughly 83,000, 20% have a hit. Active and inactive are the calls of the source. How the source made its calls: active means growth percent below 10; inactive means the rest.
Assign a class; possible classes are true (1) = active, false (0) = inactive

Smiles String: CCOC(=O)c1c(C)nc2ccccc2c1/C=C/c1ccccc1
Target Desc: CCRF-CEM leukemia
Discrete Label: false (0)

Smiles String: COc1cc(OC)c2sc(-c3ccc(-n4cncc4-c4cc(OC)c(OC)c(OC)c4)cc3)nc2c1
Target Desc: CCRF-CEM leukemia
Discrete Label: false (0)

Called result for CN1CCN(Cc2ccc(NC(=O)c3cncc(C#Cc4cnc(N)c5ccc(F)cc45)c3)cc2C(F)(F)F)CC1 true (1)

Called result for CN1CCN(c2ccc3nc4c(nc3c2C(F)(F)F)C(=O)c2ncccc2C4=O)CC1 true (1)

----------
System: KM12 colon
Assay: NCI-60 one-dose screen, 48 h
Details: 10 µM unless noted
This is part of a sample that, as a whole, favours compounds with a hit. Of some 83,000 tested, about 20% had one in any assay. Calls of active or inactive are those of the source. The calls were made as follows: active = growth percent below 10; inactive = the rest.
Assign a class; possible classes are active, inactive

Compound: O=C(Cc1cccc(OC(F)(F)F)c1)Nc1ccc(CCCCc2nnc(NC(=O)Cc3ccccn3)s2)nn1
Discrete Label: inactive
//
Compound: CN(C)c1ccc(-c2nc(-c3ccccc3)c(-c3ccccc3)[nH]2)cc1
Discrete Label: inactive
//
Compound: Cc1c(CC(=S)N2CCOCC2)nnn1-c1cccc(C(F)(F)F)c1
Discrete Label: inactive

Called result for CN(C)CCN1C(=O)c2cccc3c(/C=C/CN4C(=O)c5cccc6cccc(c56)C4=O)ccc(c23)C1=O active

Called result for COC(=O)c1cc(Br)ccc1O inactive

Called result for O=C1/C(=C/c2ccccn2)NC(=S)N1c1ccccc1Cl inactive

Called result for C=CCC(CCCC)(C(=O)OCC)C(=O)OCC inactive

Called result for O=C(C1CCCCC1)[C@@H]1[C@]2(C(=O)NC3CCCCC32)[C@@H]2CCCN2[C@@]12C(=O)NC1CCC(Cl)CC12 (some centres undefined) active

Called result for O=C(NC(Cc1nnc2n(Cc3ccccc3)c(=O)c3c4c(sc3n12)CCCC4)c1ccccc1)c1ccccc1 (centres undefined) inactive

----------
Test system: U251 CNS
Assay: NCI-60 one-dose screen, 48 h
Conditions: 10 µM unless noted
About 83,000 compounds went through this panel and 20% of them were active in at least one assay; those are over-represented in the sample as a whole. The source made the active and inactive calls. The calls were made as follows: active = growth percent below 10; inactive = the rest.
Assign a class; possible classes are true for active, false for inactive

Compound: CCOC(=O)c1c(C)nc2c(c1N)CC(=O)N2Cc1ccc(OC)cc1
Discrete Label: true

Compound: Cc1ccc(S(=O)(=O)OCCCOS(=O)(=O)c2ccc(C)cc2)cc1
Discrete Label: false

Compound: CSC1=Nc2c(c(C)c(-c3ccccc3)n2CCCC(=O)O)C2=NC(=O)C[C@H](C)N12
Discrete Label: false

Compound: CC(C)(C)n1cc(-c2ccnc(NCCNS(=O)(=O)c3ccc(O)cc3)c2)c(-c2cccc(O)c2)n1
Discrete Label: false

Compound: O=C(C1CCCCC1)[C@@H]1[C@]2(C(=O)NC3CCCCC32)[C@@H]2CCCN2[C@@]12C(=O)NC1CCC(Cl)CC12 (some centres not stated)
Discrete Label: true

Compound: O=C1/C=C/[C@@H](O)[C@@H]2C[C@@H](O)C[C@H]2/C=C/CCC[C@H](CCO)O1
Discrete Label: false

--- query ---
Called result for S=C(c1ccc2c(c1)OCO2)N1CCN(c2cccc(Cl)c2)CC1 false
